# experimental_system: human complement protein C3 (human) (UniProt P01024)
# Sequence (P01024 23-667, chain 1 of 2): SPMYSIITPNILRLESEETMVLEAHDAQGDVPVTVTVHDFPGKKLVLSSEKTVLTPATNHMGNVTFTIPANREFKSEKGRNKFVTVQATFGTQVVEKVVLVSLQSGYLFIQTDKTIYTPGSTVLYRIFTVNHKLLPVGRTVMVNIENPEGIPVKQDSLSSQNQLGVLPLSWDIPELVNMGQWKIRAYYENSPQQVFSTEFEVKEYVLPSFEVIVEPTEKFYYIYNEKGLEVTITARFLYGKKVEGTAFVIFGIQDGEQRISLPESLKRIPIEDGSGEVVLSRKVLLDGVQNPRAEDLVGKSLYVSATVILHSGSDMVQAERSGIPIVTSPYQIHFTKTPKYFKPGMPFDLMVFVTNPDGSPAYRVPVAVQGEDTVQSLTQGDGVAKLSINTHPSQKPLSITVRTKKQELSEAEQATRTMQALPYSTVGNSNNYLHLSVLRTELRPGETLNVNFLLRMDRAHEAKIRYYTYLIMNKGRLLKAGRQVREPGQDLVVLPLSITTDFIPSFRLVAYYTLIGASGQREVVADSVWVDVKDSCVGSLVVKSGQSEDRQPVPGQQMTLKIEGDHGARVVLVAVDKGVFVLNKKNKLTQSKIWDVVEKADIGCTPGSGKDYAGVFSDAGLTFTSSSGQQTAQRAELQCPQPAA
# Sequence (P01024 672-1663, chain 2 of 2): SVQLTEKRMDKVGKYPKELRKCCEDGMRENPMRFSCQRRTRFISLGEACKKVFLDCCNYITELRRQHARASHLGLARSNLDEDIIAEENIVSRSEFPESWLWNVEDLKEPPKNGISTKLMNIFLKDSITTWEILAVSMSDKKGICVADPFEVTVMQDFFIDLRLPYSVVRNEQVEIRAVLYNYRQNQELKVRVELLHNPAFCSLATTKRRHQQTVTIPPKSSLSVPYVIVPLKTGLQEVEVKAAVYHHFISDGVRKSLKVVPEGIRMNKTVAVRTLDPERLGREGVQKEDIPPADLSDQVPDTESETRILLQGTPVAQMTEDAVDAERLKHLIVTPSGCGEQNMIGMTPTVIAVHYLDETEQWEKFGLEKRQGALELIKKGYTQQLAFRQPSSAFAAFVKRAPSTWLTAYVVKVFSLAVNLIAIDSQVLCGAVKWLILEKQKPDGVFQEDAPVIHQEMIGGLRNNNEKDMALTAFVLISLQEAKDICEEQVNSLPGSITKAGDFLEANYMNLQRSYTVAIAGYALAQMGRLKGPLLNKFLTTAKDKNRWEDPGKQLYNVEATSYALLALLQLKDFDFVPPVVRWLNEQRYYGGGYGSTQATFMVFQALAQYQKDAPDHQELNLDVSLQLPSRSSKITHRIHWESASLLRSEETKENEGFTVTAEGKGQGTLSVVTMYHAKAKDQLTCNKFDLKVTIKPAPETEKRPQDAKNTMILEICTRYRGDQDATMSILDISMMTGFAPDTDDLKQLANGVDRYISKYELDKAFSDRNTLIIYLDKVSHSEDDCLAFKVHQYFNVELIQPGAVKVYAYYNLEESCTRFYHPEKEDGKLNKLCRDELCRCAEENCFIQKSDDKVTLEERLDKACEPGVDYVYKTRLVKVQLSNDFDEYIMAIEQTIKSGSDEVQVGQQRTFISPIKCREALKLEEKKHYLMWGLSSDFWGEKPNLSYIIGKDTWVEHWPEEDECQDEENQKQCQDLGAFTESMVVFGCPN
# experiment_description: cell-based or functional assay
Friendly reminder: EC50 (nM), cleavage of purified hC3 in vitro below 2 nM is Fulfilled, at or above is Not fulfilled.

{"binder": "Q38H/I41S/D60bT/F60eS/Y60gW/D96K/F97G/ins97aV/T98P/F99L/C122S/G151H/Q175L/Q192D (enzyme) VVGGTDADEGEWPWQVSLHALGHGHSCGASLISPNWLVSAAHCYIDTRGSRWSDPTQWTAFLGLHDQSQRSAPGVQERRLKRIISHPFFNKGVPLDYDIALLELEKPAEYSSMVRPISLPDASHVFPAGKAIWVTGWGHTQYGGTHALILQKGEIRVINQTTCENLLPQLITPRMMCVGFLSGGVDSCDGDSGGPLSSVEADGRIFQAGVVSWGDGCAQRNKPGVYTRLPLFRDWIKENTGV", "group_label": "Not fulfilled"}
{"binder": "Q38H/I41S/D60bT/F60eS/Y60gW/D96K/F97D/ins97aA/T98P/F99L/C122S/G151N/Q175L/Q192D (enzyme) VVGGTDADEGEWPWQVSLHALGHGHSCGASLISPNWLVSAAHCYIDTRGSRWSDPTQWTAFLGLHDQSQRSAPGVQERRLKRIISHPFFNKDAPLDYDIALLELEKPAEYSSMVRPISLPDASHVFPAGKAIWVTGWGHTQYGGTNALILQKGEIRVINQTTCENLLPQLITPRMMCVGFLSGGVDSCDGDSGGPLSSVEADGRIFQAGVVSWGDGCAQRNKPGVYTRLPLFRDWIKENTGV", "group_label": "Not fulfilled"}
{"binder": "Q38H/I41S/D60bS/ins97aV/F97D/T98P/F99L/M117L/C122S/I136T/Q192G/D217I (enzyme) VVGGTDADEGEWPWQVSLHALGHGHSCGASLISPNWLVSAAHCYIDSRGFRYSDPTQWTAFLGLHDQSQRSAPGVQERRLKRIISHPFFNDDVPLDYDIALLELEKPAEYSSLVRPISLPDASHVFPAGKATWVTGWGHTQYGGTGALILQKGEIRVINQTTCENLLPQQITPRMMCVGFLSGGVDSCGGDSGGPLSSVEADGRIFQAGVVSWGIGCAQRNKPGVYTRLPLFRDWIKENTGV", "group_label": "Not fulfilled"}
{"binder": "Q38G/H40R/I41H/D60bN/F97D/F99L/C122S/Q175L/Q192G (enzyme) VVGGTDADEGEWPWQVSLHALGGGRHCGASLISPNWLVSAAHCYIDNRGFRYSDPTQWTAFLGLHDQSQRSAPGVQERRLKRIISHPFFNDDTLDYDIALLELEKPAEYSSMVRPISLPDASHVFPAGKAIWVTGWGHTQYGGTGALILQKGEIRVINQTTCENLLPQLITPRMMCVGFLSGGVDSCGGDSGGPLSSVEADGRIFQAGVVSWGDGCAQRNKPGVYTRLPLFRDWIKENTGV", "group_label": "Fulfilled"}
{"binder": "Q38H/I41A/D60bV/F60eR/Y60gW/ins97aE/F97T/T98G/F99L/C122S/Q175L/Q192D (enzyme) VVGGTDADEGEWPWQVSLHALGHGHACGASLISPNWLVSAAHCYIDVRGRRWSDPTQWTAFLGLHDQSQRSAPGVQERRLKRIISHPFFNDTEGLDYDIALLELEKPAEYSSMVRPISLPDASHVFPAGKAIWVTGWGHTQYGGTGALILQKGEIRVINQTTCENLLPQLITPRMMCVGFLSGGVDSCDGDSGGPLSSVEADGRIFQAGVVSWGDGCAQRNKPGVYTRLPLFRDWIKENTGV", "group_label": "Not fulfilled"}
{"binder": "Q38H/I41A/D60bT/F60eH/Y60gW/ins97aE/F97T/T98G/F99L/C122S/Q175L/Q192D (enzyme) VVGGTDADEGEWPWQVSLHALGHGHACGASLISPNWLVSAAHCYIDTRGHRWSDPTQWTAFLGLHDQSQRSAPGVQERRLKRIISHPFFNDTEGLDYDIALLELEKPAEYSSMVRPISLPDASHVFPAGKAIWVTGWGHTQYGGTGALILQKGEIRVINQTTCENLLPQLITPRMMCVGFLSGGVDSCDGDSGGPLSSVEADGRIFQAGVVSWGDGCAQRNKPGVYTRLPLFRDWIKENTGV", "group_label": "Not fulfilled"}
{"binder": "Q38H/I41A/D60bV/F60eR/Y60gW/D96P/ins97aN/F97W/T98G/F99L/C122S/G151H/Q175L/Q192D (enzyme) VVGGTDADEGEWPWQVSLHALGHGHACGASLISPNWLVSAAHCYIDVRGRRWSDPTQWTAFLGLHDQSQRSAPGVQERRLKRIISHPFFNPWNGLDYDIALLELEKPAEYSSMVRPISLPDASHVFPAGKAIWVTGWGHTQYGGTHALILQKGEIRVINQTTCENLLPQLITPRMMCVGFLSGGVDSCDGDSGGPLSSVEADGRIFQAGVVSWGDGCAQRNKPGVYTRLPLFRDWIKENTGV", "group_label": "Fulfilled"}
{"binder": "Q38H/I41A/D60bV/F60eR/Y60gW/D96S/ins97aR/F97A/T98S/F99L/C122S/G151N/Q175L/Q192T (enzyme) VVGGTDADEGEWPWQVSLHALGHGHACGASLISPNWLVSAAHCYIDVRGRRWSDPTQWTAFLGLHDQSQRSAPGVQERRLKRIISHPFFNSARSLDYDIALLELEKPAEYSSMVRPISLPDASHVFPAGKAIWVTGWGHTQYGGTNALILQKGEIRVINQTTCENLLPQLITPRMMCVGFLSGGVDSCTGDSGGPLSSVEADGRIFQAGVVSWGDGCAQRNKPGVYTRLPLFRDWIKENTGV", "group_label": "Not fulfilled"}
{"binder": "I41T/D60bW/F60eH/F97D/ins97aV/T98P/F99L/C122S/G151N/Q175L/Q192G (enzyme) VVGGTDADEGEWPWQVSLHALGQGHTCGASLISPNWLVSAAHCYIDWRGHRYSDPTQWTAFLGLHDQSQRSAPGVQERRLKRIISHPFFNDDVPLDYDIALLELEKPAEYSSMVRPISLPDASHVFPAGKAIWVTGWGHTQYGGTNALILQKGEIRVINQTTCENLLPQLITPRMMCVGFLSGGVDSCGGDSGGPLSSVEADGRIFQAGVVSWGDGCAQRNKPGVYTRLPLFRDWIKENTGV", "group_label": "Not fulfilled"}
{"binder": "Q38H/I41A/D60bW/ins97aV/F97D/T98P/F99L/C122S/I136M/Q192G/D217N (enzyme) VVGGTDADEGEWPWQVSLHALGHGHACGASLISPNWLVSAAHCYIDWRGFRYSDPTQWTAFLGLHDQSQRSAPGVQERRLKRIISHPFFNDDVPLDYDIALLELEKPAEYSSMVRPISLPDASHVFPAGKAMWVTGWGHTQYGGTGALILQKGEIRVINQTTCENLLPQQITPRMMCVGFLSGGVDSCGGDSGGPLSSVEADGRIFQAGVVSWGNGCAQRNKPGVYTRLPLFRDWIKENTGV", "group_label": "Not fulfilled"}
